B1: H2-Kb / B6 (parent)
chain 1: GDSVTQTEGLVTVTEGLPVKLNCTYQTTYLTIAFFWYVQYLNEAPQVLLKSSTDNKRTEHQGFHATLHKSSSSFHLQKSSAQLSDSALYYCALSLGNAGAKLTFGGGTRLTVRP
chain 2: EAAVTQSPRNKVTVTGGNVTLSCRQTNSHNYMYWYRQDTGHGLRLIHYSYGAGNLQIGDVPDGYKATRTTQEDFFLLLELASPSQTSLYFCASSDGMISSSYEQYFGPGTRLTVL
chain 3: not shown
chain 4: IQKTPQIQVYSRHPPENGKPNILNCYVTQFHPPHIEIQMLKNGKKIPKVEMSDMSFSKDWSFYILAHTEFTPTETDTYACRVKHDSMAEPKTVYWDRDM
chain 5: SIINFEKL

Variants of: B1
Assay: % of reporter cells activated (NFAT-GFP), raw; further: test concentration or dose not given here
Design: unit not given here
Conditions: with B6
Value type: ratio to parent

In the examples that follow, each entry is paired with its recorded ratio to parent.
- chain 5 I3N: 0.913
- chain 5 I3F: 1.43
- chain 5 L8M: 0.718
- chain 5 K7Y: 0.738
- chain 5 N4K: 0.926
- chain 5 E6T: 0.859

(I) chain 5 F5T
(II) chain 5 K7R
[ask] Could you determine which record has the numerically smaller ratio to parent? Candidates: I and II Could you answer with the label of the item you picked?
[reply] II

(I) chain 5 E6Q
(II) chain 5 N4C
[ask] Hello, I am sorting some records. Could you say if I or II has the smaller ratio to parent value? When you have decided, please share the label of that item.
[reply] I

(1) chain 5 S1Q
(2) chain 5 N4M
(3) chain 5 L8D
(4) chain 5 F5C
[ask] In this exercise, place the 4 variants in ascending sequence of their recorded ratio to parent. Order the labels as requested and give them as your answer.
[reply] 3, 1, 4, 2

Just for reference, paper PMC11480844 is where these values come from.
